# assay: LogP by HPLC on reversed phase columns (EEC directive 79/831 Annex V.A8)
# Type: physicochemical
# particulars: method [a]: LC-UV, acidic range, 0.1% formic acid in water and acetonitrile as eluent (linear gradient 10% to 95% acetonitrile)
assay_readout: chromatographic logP

COC(=O)[C@H](CSC(=O)N(C)C)NC(=O)c1sc(Cl)c(Cl)c1Cl = 3.56

---

Collected LogP values appear next to each entry.
# assay: LogP by HPLC on reversed phase columns (EEC directive 79/831 Annex V.A8)
# Type: physicochemical
assay_readout: LogP

COC(=O)C(C1CC1)N(O)C(=O)c1sc(Cl)c(Cl)c1Cl (stereo not drawn) [I.021] = 3.00^[a]
O=C(NC(CO)C(=O)O)c1sc(Cl)c(Cl)c1Cl (stereo not drawn) [I.056] = 1.94^[a]
O=C(NC1CCCNC1=O)c1sc(Cl)c(Cl)c1Cl (stereo not drawn) [I.031] = 2.20^[a]
O=C(NC(Cc1c[nH]c2ccccc12)C(=O)O)c1sc(Cl)c(Cl)c1Cl (stereo not drawn) [I.003] = 3.31^[a]
CCOC(=O)[C@H](C)NC(=S)c1sc(Cl)c(Cl)c1Cl [I.118] = 5.21^[a]
CCOC(=O)C(CC1CC1)NC(=O)c1sc(Cl)c(Cl)c1Cl (stereo not drawn) [I.058] = 4.81^[a]
O=C(CNC(=O)c1sc(Cl)c(Cl)c1Cl)SCc1ccccc1 [I.041] = 4.56^[a]
CC(C)(C)OC(=O)C1(NC(=O)c2sc(Cl)c(Cl)c2Cl)CC(F)(F)C1 [I.086] = 4.81^[a]
O=C(CNC(=O)c1sc(Cl)c(Cl)c1Cl)NO [I.148] = 1.70^[a]
CCOC(=O)C(NC(=S)c1sc(Cl)c(Cl)c1Cl)C(C)C (stereo not drawn) [I.092] = 6.17^[a]
CCCCOC(=O)C1(NC(=O)c2sc(Cl)c(Cl)c2Cl)CCC1 [I.099] = 5.20^[a]
N#CC(NC(=O)c1sc(Cl)c(Cl)c1Cl)c1ccccc1 (stereo not drawn) [I.034] = 3.92^[a]
O=C(NC1CCSC1=O)c1sc(Cl)c(Cl)c1Cl (stereo not drawn) [I.023] = 3.17^[a]
O=C(NC1(C(=O)OC2CCC2)CCC1)c1sc(Cl)c(Cl)c1Cl [I.102] = 4.93^[a]
NC(=S)C1(NC(=O)c2sc(Cl)c(Cl)c2Cl)CC1 [I.105] = 2.62^[a]
COC(=O)[C@H](Cc1ccccc1)NC(=O)[C@H](CC(=O)O)NC(=O)c1sc(Cl)c(Cl)c1Cl [I.074] = 3.19^[a]
CCNC(=O)[C@@H](NC(=O)c1sc(Cl)c(Cl)c1Cl)C(C)C [I.094] = 3.43^[a]
COC(=O)C1(NC(=O)c2sc(Cl)c(Cl)c2Cl)CC(C)(C)C1 [I.087] = 4.48^[a]
NC(=O)C1(NC(=O)c2sc(Cl)c(Cl)c2Cl)CC1 [I.060] = 2.00^[a]
CC(C)OC(=O)C1(C2(NC(=O)c3sc(Cl)c(Cl)c3Cl)CC2)CC1 [I.027] = 5.35^[a]
NC(=O)CC(NC(=O)c1sc(Cl)c(Cl)c1Cl)C(=O)O (stereo not drawn) [I.001] = 1.81^[a]
CCSC(=O)CNC(=O)c1sc(Cl)c(Cl)c1Cl [I.036] = 3.75^[a]
CN(CC#N)C(=O)C1(NC(=O)c2sc(Cl)c(Cl)c2Cl)CC1 [I.052] = 2.44^[a]
N#CNC(=O)CNC(=O)c1sc(Cl)c(Cl)c1Cl [I.106] = 2.45^[a]
CCOC(=O)C(NC(=O)c1sc(Cl)c(Cl)c1Cl)C(=O)OCC [I.006] = 4.19^[a]
O=C1SCCC1NC(=S)c1sc(Cl)c(Cl)c1Cl (stereo not drawn) [I.019] = 4.37^[a]
COC(=O)[C@H](CC(=O)O)NC(=O)c1sc(Cl)c(Cl)c1Cl [I.081] = 2.46^[a]
O=C(NC1(C(=O)NO)CC1)c1sc(Cl)c(Cl)c1Cl [I.050] = 1.91^[a]
O=C1CC(NC(=O)c2sc(Cl)c(Cl)c2Cl)CN1 (stereo not drawn) [I.028] = 1.86^[a]
CN(CC#N)C(=O)CNC(=O)c1sc(Cl)c(Cl)c1Cl [I.063] = 2.62^[a]
CCSC(=O)C(NC(=O)c1sc(Cl)c(Cl)c1Cl)C(C)C (stereo not drawn) [I.040] = 5.34^[a]
COC(=O)CC(C)NC(=O)c1sc(Cl)c(Cl)c1Cl (stereo not drawn) [I.135] = 3.64^[a]
NC(=O)CCC(NC(=O)c1sc(Cl)c(Cl)c1Cl)C(=O)O (stereo not drawn) [I.002] = 1.73^[a]
CC(C)C(C#N)NC(=O)c1sc(Cl)c(Cl)c1Cl (stereo not drawn) [I.130] = 3.81^[a]
CCOC(=O)C(NC(=O)c1sc(Cl)c(Cl)c1Cl)OC (stereo not drawn) [I.017] = 3.57^[a]
O=C(NC1(C(=O)OCc2ccccc2)CCC1)c1sc(Cl)c(Cl)c1Cl [I.100] = 5.00^[a]
N#CC1(NC(=O)c2sc(Cl)c(Cl)c2Cl)CCC(c2ccccc2)CC1 (stereo not drawn) [I.131] = 5.00^[a]
COC(=O)[C@@H](CC(N)=O)NC(=O)c1sc(Cl)c(Cl)c1Cl [I.014] = 2.11^[a]
O=C(N[C@H]1CCOC1=O)c1sc(Cl)c(Cl)c1Cl [I.121] = 2.49^[a]
COC(=O)[C@H](CCC(N)=O)NC(=O)c1sc(Cl)c(Cl)c1Cl [I.082] = 2.19^[a]
CSCCC(NC(=O)c1sc(Cl)c(Cl)c1Cl)C(=O)O (stereo not drawn) [I.051] = 3.01^[a]
CNC(=S)CNC(=O)c1sc(Cl)c(Cl)c1Cl [I.128] = 2.89^[a]

// data source = patent US20230055705A1
